# Assay procedure: AUC (0 to t) in ICR mouse at 3 mg/kg, po administered via gavage measured after 24 hrs by LC-MS/MS analysis
# Format: ADME, organism-based
# Set-up: time 24 hrs, dose 3 mg/kg, route po
# Condition context: in vivo
Endpoint label: AUCt (ng·h/mL)
Numbers only, in ng·h/mL.

Query: Could you share which AUCt value was measured for Cc1cc(I)ccc1Nc1c(C(=O)NOCCO)cc2ocnc2c1F ?
Reply: 337

====

# Test system: SMMC-7721
# Assay procedure: Cytotoxicity against human SMMC-7721 cells assessed as reduction in cell growth incubated for 48 hrs by MTT assay
# Assay type: functional, cell-based
# Condition context: SMMC-7721, 48 h
Endpoint label: pIC50
Give bare numbers, as −log10 of the molar value.

Query: Find pIC50 (SMMC-7721) for the entry CCOc1ccc2c(c1)c1c(n2CCN2CCNCC2)-c2cc(C(C)C)ccc2[C@@]2(C)CCC[C@@](C)(C(=O)OC)C12 (stereo partly specified)
Reply: 5.86

====

# System: MCF7
# Assay procedure: Cytotoxicity against human MCF7 cells assessed as reduction in cell viability incubated for 24 hrs by MTT assay
# Format: functional, cell-based
# Condition context: MCF7, 24 h
Endpoint label: pIC50
Answers are plain numbers, as −log10 of the molar value.

Query: Find the recorded pIC50 belonging to N#Cc1c(-c2ccccc2Br)c(N2CCOCC2)n(-c2ccc(Cl)cc2Cl)c1N and report it.
Reply: 5.87

====

# Assay procedure: Oral bioavailability in ICR mouse at 3 mg/kg measured after 24 hrs by LC-MS/MS analysis
# Type: ADME, organism-based
# Condition context: in vivo
Endpoint label: bioavailability

Query: Given Cc1cc(I)ccc1Nc1c(C(=O)NOCCO)cc2ocnc2c1F , state its recorded bioavailability.
Reply: 28%

====

# System: MDA-MB-231
# Assay procedure: Cytotoxicity against human MDA-MB-231 cells assessed as reduction in cell viability incubated for 72 hrs by MTT assay
# Format: functional, cell-based
# Condition context: MDA-MB-231, 72 h
Endpoint label: pIC50
Answers are plain numbers, as −log10 of the molar value.

Query: Would you mind telling me what pIC50 value was observed for CC(=O)NNC(=O)[C@]12CC[C@@H](C)[C@H](C)C1C1=CCC3[C@@]4(C)Cc5cc6cc(Cl)ccc6cc5C(C)(C)C4CC[C@@]3(C)[C@]1(C)CC2 (stereo partly specified) ?
Reply: 6.92
